Data provenance is patent US8748421B2.

Form field: pIC50 (one value per entry).
# systemName: PI3K-gamma (Homo sapiens, UniProt P48736)
# Sequence (P48736 whole entry, species assumed): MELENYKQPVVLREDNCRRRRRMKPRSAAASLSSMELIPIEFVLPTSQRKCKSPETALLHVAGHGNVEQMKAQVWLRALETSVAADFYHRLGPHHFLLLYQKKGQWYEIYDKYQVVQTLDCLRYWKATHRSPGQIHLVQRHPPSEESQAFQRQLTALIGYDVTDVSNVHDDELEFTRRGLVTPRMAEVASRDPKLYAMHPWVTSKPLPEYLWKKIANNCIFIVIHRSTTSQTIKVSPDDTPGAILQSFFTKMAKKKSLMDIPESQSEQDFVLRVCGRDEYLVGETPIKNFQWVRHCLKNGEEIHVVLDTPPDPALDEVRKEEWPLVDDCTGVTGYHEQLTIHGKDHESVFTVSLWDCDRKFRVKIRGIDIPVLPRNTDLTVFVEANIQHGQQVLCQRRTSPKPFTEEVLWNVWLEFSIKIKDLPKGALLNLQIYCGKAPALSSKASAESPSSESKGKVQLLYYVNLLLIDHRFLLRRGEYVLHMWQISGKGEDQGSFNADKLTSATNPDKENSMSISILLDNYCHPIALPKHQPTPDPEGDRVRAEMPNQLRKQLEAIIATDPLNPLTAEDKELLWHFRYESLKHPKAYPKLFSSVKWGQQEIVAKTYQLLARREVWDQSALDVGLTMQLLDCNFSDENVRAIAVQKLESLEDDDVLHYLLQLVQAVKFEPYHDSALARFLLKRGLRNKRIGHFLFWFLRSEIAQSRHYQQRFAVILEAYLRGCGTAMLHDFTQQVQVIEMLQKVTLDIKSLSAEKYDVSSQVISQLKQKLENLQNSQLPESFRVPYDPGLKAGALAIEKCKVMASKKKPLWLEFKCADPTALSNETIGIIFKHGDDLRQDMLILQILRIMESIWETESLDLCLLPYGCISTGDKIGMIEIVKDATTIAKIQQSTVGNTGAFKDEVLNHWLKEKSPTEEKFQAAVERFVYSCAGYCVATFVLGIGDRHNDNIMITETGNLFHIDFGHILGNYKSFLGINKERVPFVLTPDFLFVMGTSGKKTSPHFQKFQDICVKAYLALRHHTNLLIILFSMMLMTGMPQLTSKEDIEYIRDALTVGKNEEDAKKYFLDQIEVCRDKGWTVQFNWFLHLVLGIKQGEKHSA
Notebook: values listed as pIC50 are -log10 of the concentration (mol/L).

[[record]]
itemsmiles = "CC(C)N1CCCN(c2nc(-c3ccc(NC(=O)Nc4ccc(C(=O)N5CCN(C)CC5)cc4)cc3)nc(N3CCOC[C@@H]3C)n2)CC1"
datavalue = 6.06

[[record]]
itemsmiles = "C[C@H]1COCCN1c1nc(-c2ccc(NC(=O)Nc3ccc(C(=O)N4C5CCC4COC5)cc3)cc2)nc(N2CCOC[C@@H]2C)n1"
datavalue = 7.54

[[record]]
itemsmiles = "CC(C)NC(=O)N1CC(Oc2nc(-c3ccc(NC(=O)Nc4ccncc4)cc3)nc(N3CCOCC3)n2)C1"
datavalue = 7.76

[[record]]
itemsmiles = "O=C(Nc1ccncc1)Nc1ccc(-c2nc(OC3CNC3)nc(N3CCOCC3)n2)cc1"
datavalue = 7.73


Shift focus to the following entry.
Input: Query: pIC50; subject: CN(C)[C@@H]1CCN(C(=O)c2ccc(NC(=O)Nc3ccc(-c4nc(C5CCOCC5)nc(N5CCOCC5)n4)cc3)cc2)C1
Output: 8.35
